measured-on: recombinant human VAP-1 (Homo sapiens)
Construct: purchased R&D systems
Sequence (Q16853 whole entry): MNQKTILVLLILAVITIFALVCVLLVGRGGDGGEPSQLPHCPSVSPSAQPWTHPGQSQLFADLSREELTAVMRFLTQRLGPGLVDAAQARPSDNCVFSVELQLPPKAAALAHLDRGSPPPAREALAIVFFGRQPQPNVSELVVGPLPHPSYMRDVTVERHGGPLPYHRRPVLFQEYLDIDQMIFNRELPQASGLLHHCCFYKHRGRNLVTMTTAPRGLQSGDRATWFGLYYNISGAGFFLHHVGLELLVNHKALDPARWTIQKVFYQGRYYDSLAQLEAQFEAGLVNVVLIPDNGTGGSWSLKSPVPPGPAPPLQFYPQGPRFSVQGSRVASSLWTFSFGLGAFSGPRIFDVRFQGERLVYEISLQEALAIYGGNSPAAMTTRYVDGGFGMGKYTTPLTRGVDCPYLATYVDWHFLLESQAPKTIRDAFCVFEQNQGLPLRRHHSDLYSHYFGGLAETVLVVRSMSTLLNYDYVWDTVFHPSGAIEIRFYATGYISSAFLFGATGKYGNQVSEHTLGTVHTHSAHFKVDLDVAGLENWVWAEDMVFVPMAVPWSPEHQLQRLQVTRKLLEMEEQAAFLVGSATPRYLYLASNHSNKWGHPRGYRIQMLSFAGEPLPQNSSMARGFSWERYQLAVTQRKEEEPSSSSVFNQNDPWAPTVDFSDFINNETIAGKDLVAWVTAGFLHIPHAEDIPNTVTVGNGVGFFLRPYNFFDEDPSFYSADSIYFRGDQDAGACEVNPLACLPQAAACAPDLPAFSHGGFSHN
procedure-summary: Activity on recombinant human VAP-1, Amplex Red HRP-coupled hydrogen peroxide assay, benzylamine substrate
Assay type: biochemical
stated-conditions: recombinant human VAP-1, benzylamine substrate, 30 min preincubation at 37° C.; read-out: Inhibitory Activity (IC50, nM) human VAP-1
Counter-ions that a name gives are not always drawn.
API: label(entry) gives Fulfilled if the entry's IC50 is strictly smaller than 0.8 nM; on equality or larger values it gives Not fulfilled.

Prompt line: Given the entry NC/C(=C\F)Cn1ncn(-c2cc(F)c(Br)cc2F)c1=O [Example 23, hydrochloride] , would its reported IC50 be below 0.8 nM?
Response line: Not fulfilled

Prompt line: Given the entry COc1cc(-n2cnn(C/C(=C/F)CN)c2=O)ccc1Br [Example 18, hydrochloride] , would its reported IC50 be below 0.8 nM?
Response line: Not fulfilled

Prompt line: Given the entry Cc1cc(-c2ccc3c(c2)OCO3)cnc1-n1cnn(C/C(=C/F)CN)c1=O [Example 150, hydrochloride] , would its reported IC50 be below 0.8 nM?
Response line: Fulfilled
